Tested on: 786-0 renal
test_name: NCI tumour cell line growth inhibition, 48 h
measurement_kind: TGI

| molecule | measured_target | result |
| --- | --- | --- |
| N#CCCN1C/C(=C/c2ccccc2)C(=O)/C(=C/c2ccccc2)C1 | 786-0 renal | 4.07 µM |
| COc1ccccc1C1(c2c(OC(C)C)c(=O)c2=O)SCCCS1 | 786-0 renal | > 100 µM |
| C=C1CC[C@@H]2C(C)(C)C(O)CCC2(C)C1COc1ccc2ccc(=O)oc2c1 (stereo not given in full) | 786-0 renal | 42.2 µM |
| CCN1C(Cl)=NS(=O)(=O)c2ccccc21 | 786-0 renal | 64.6 µM |
| COC(=O)[C@H](Cc1c[nH]c2ccccc12)NC(=O)OCC1OC(n2cc(C)c(=O)[nH]c2=O)CC1N=[N+]=[N-] (stereo not given in full) | 786-0 renal | > 100 µM |
| CO/C(N)=C(\C#N)N=Cc1ccccc1 | 786-0 renal | > 100 µM |
| Cc1ccncc1N1CCN(c2ccnc(Cl)c2)C1=O | 786-0 renal | > 100 µM |
| Cc1cc(C)c(S(=O)(=O)N2CCN(c3cc4c(cc3F)c(=O)c(C(=O)O)cn4C3CC3)CC2)c(C)c1 | 786-0 renal | > 100 µM |
| C=CCN1C(=O)C(=O)N(CC=C)C(=O)C1=O | 786-0 renal | > 100 µM |
| NC(=O)[C@@H](CCC(F)(F)F)N(Cc1ccc(-c2ncon2)cc1F)S(=O)(=O)c1ccc(Cl)cc1 | 786-0 renal | > 59 µM |
| COc1nc(SC)nc2c1C(O)n1c(nc3ccccc31)S2 (stereo not given) | 786-0 renal | 24.6 µM |
| CC1=Nn2c(nnc2-c2ccccc2Cl)NC(C)(C)C1 | 786-0 renal | > 100 µM |
| COc1cc2c3c(n(CCCN(C)C)c(=O)c2cc1OC)-c1cc2c(cc1C3=O)OCO2 | 786-0 renal | 0.583 µM |
| COC(=O)N1c2ccc3c(nc(Cc4ccccc4)n3[C@H]3CCC[C@H](C(=O)O)C3)c2CC[C@@H]1C | 786-0 renal | > 100 µM |
| COc1ccc2nc(NC(=O)COc3cc(/C=C\c4cc(OC)c(OC)c(OC)c4)ccc3OC)sc2c1 | 786-0 renal | > 100 µM |
| c1ccc(C2=NOC3COc4ccccc4OCC23)cc1 (stereo not given) | 786-0 renal | > 100 µM |
| Clc1ccc(CN2COc3c(ccc4cccnc34)C2)cc1Cl | 786-0 renal | 5.85 µM |
| CCOC(=O)C(C(N)=O)c1nc2cc([N+](=O)[O-])ccc2nc1/C=C(\O)c1ccccc1 (stereo not given) | 786-0 renal | 25.5 µM |
| CO/N=C(\COc1ccc2c(=O)cc(-c3ccccc3)oc2c1)c1ccc(F)cc1 | 786-0 renal | 49.8 µM |
| NCc1ccc(O)c(O)c1 | 786-0 renal | > 100 µM |

====

Tested on: MDA-MB-435
test_name: NCI tumour cell line growth inhibition, 48 h

| compound | TGI |
| --- | --- |
| C[C@@H]1CCC2[C@@H](C)[C@@H](OC3CCC(O)CC3)OC3O[C@@]4(C)CCC1[C@]32OO4 (stereo not given in full) | > 100 µM |
| C=CCCCC(=O)CCC(=O)OCC1O[C@@H](O[C@@H]2C(O)[C@@H](OC(C)=O)C(C)O[C@H]2O[C@H](CC=C)CCCCC)C(O)[C@@H](OC(=O)/C(C)=C/C)[C@@H]1OC(=O)/C=C/c1ccccc1 (stereo not given in full) | > 50 µM |
| CCOC(=O)C(C)(C)Oc1ccc(Cl)cc1 | > 1000 µM |
| N#C/C(=C\c1ccc(Cl)cc1)c1nc(-c2cc3ccccc3oc2=O)cs1 | > 100 µM |
| Cc1ccc(S(=O)(=O)N2CCCN(S(=O)(=O)c3ccc(C)cc3)CC2)cc1 | > 100 µM |
